- System: head twitch response in mice
- PROTOCOL NOTES: Head twitch response (HTR)
- Format: in vivo
- MEASUREMENT CONTEXT: mice, i.p., 10 min after injection
PROPERTY MEASURED: HTR ED50 (mg/kg)
Write the number in mg/kg without appending the unit.

Below: 5 molecules and their reported HTR ED50.
{"LINE NOTATION": "COc1ccc2[nH]cc(CCNC(C)C)c2c1", "ENDPOINT UNIT": "mg/kg", "NUMBER": 4.85}
{"LINE NOTATION": "CCN(CCc1c[nH]c2ccc(OC)cc12)C(C)C", "ENDPOINT UNIT": "mg/kg", "NUMBER": 10.6}
{"LINE NOTATION": "C=CCN(CC=C)CCc1c[nH]c2ccc(OC)cc12", "ENDPOINT UNIT": "mg/kg", "NUMBER": 4.16}
{"LINE NOTATION": "C=CCN(C)CCc1c[nH]c2ccc(OC)cc12", "ENDPOINT UNIT": "mg/kg", "NUMBER": 0.796}
{"LINE NOTATION": "CCN(C)CCc1c[nH]c2ccc(OC)cc12", "ENDPOINT UNIT": "mg/kg", "NUMBER": 2.72}

Problem: Let me know recorded HTR ED50 for `CCN(CC)CCc1c[nH]c2ccc(OC)cc12` , thanks.
Result: 2.32

Problem: Let me know recorded HTR ED50 for `COc1ccc2[nH]cc(CCN(C)C(C)C)c2c1` , thanks.
Result: 0.791

Problem: Let me know recorded HTR ED50 for `COc1ccc2[nH]cc(CCN3CCCC3)c2c1` , thanks.
Result: 7.29
